- System: mice
- ASSAY_PROTOCOL: Hypnotic activity: loss of righting reflex after intravenous injection in mice
- Format: in vivo
- STUDY_CONDITIONS: intravenous injection over 10 seconds, dose causing loss of righting reflex for minimum 30 seconds in 50% of treated mice

# COMPOUND, HD50 (hypnotic dose50)
data = [
    ("COCCN(CCOC)C(COC)C(=O)Oc1c(OC)cc(C)cc1OC (stereo not shown) [Example 4a]", "28 µmol/kg"),
    ("CCOCCN(CCOCC)C(CCOC)C(=O)Oc1c(OC)cccc1OC (stereo not shown) [Example 10g]", "28 µmol/kg"),
    ("COC(=O)CCC(C(=O)Oc1c(OC)cccc1OC)N1CCSCC1.Cl (stereo not shown) [Example 47c]", "44 µmol/kg"),
    ("COCCN(CCOC)C(COC)C(=O)Oc1c(OC)cc(C)cc1OC (stereo not shown) [Example 51d]", "36 µmol/kg"),
    ("COc1cccc(OC)c1OC(=O)C(CCSC)N1CCCCC1 (stereo not shown) [Example 40a]", "<26 µmol/kg"),
    ("COc1cccc(OC)c1OC(=O)C(CC(=O)N1CCCC1)N1CCCCCC1 (stereo not shown) [Example 36]", "34 µmol/kg"),
    ("COCC(C(=O)Oc1c(OC)cccc1OC)N1CCSCC1 (stereo not shown) [Example 3c]", "21 µmol/kg"),
    ("COCCC(C(=O)Oc1c(OC)cccc1OC)N1CCC(OC)CC1 (stereo not shown) [Example 10d]", "21 µmol/kg"),
    ("COC(=O)CCC(C(=O)Oc1c(OC)cccc1OC)N1CCCCC1.Cl (stereo not shown) [Example 47a]", "50 µmol/kg"),
    ("CCOCCN(CCOCC)C(CCC(=O)OC)C(=O)Oc1c(OC)cc(C)cc1OC.Cl (stereo not shown) [Example 50]", "40 µmol/kg"),
    ("COCCN(CCOC)C(COC)C(=O)Oc1c(OC)cccc1OC (stereo not shown) [Example 3b]", "41 µmol/kg"),
    ("COCCN(CCOC)C(CCC(=O)OC)C(=O)Oc1c(OC)cccc1OC.Cl (stereo not shown) [Example 48]", "37 µmol/kg"),
    ("COc1cccc(OC)c1OC(=O)C(CN1CCOC(C)(C)C1)N1CCOC(C)(C)C1 (stereo not shown) [Example 18b]", "31 µmol/kg"),
    ("COC(=O)CCC(C(=O)Oc1c(OC)cc(C)cc1OC)N1CCCC1.Cl (stereo not shown) [Example 49a]", "50 µmol/kg"),
    ("COCCC(C(=O)Oc1c(OC)cccc1OC)N1CC=CCC1 (stereo not shown) [Example 10c]", "22 µmol/kg"),
    ("COCCC(C(=O)Oc1c(OC)cc(C)cc1OC)N1CCC(OC)CC1 (stereo not shown) [Example 10k]", "34 µmol/kg"),
    ("COCCC(C(=O)Oc1c(OC)cc(C)cc1OC)N1CCCOCC1 (stereo not shown) [Example 10j]", "25 µmol/kg"),
    ("CCOCC(C(=O)Oc1c(OC)cccc1OC)N1CCCOCC1 (stereo not shown) [Example 3r]", "20 µmol/kg"),
    ("CCOCCC(C(=O)Oc1c(OC)cccc1OC)N(CCOC)CCOC (stereo not shown) [Example 10r]", "27 µmol/kg"),
    ("COCCN(CCOC)C(CC(=O)OC)C(=O)Oc1c(OC)cccc1OC (stereo not shown) [Example 24a]", "48 µmol/kg"),
    ("COCCN(CCOC)C(CC(=O)OC)C(=O)Oc1c(OC)cc(C)cc1OC (stereo not shown) [Example 24b]", "48 µmol/kg"),
    ("CC[C@@H]1CN(C(CN2CCOCC2)C(=O)Oc2c(OC)cccc2OC)CCO1 (stereo partly shown) [Example 19e]", "27 µmol/kg"),
    ("COCCC(C(=O)Oc1c(OC)cc(C)cc1OC)N(CCOC)CCOC (stereo not shown) [Example 10l]", "26 µmol/kg"),
    ("CCN(CC)C(=O)CC(C(=O)Oc1c(OC)cc(C)cc1OC)N1CCOCC1 (stereo not shown) [Example 32a]", "38 µmol/kg"),
    ("COc1cccc(OC)c1OC(=O)C(CN1CCc2ccccc2C1)N1CCOCC1 (stereo not shown) [Example 19j]", "21 µmol/kg"),
    ("COc1cccc(OC)c1OC(=O)C(CC(=O)N1CCCCC1)N1CCCCC1 (stereo not shown) [Example 34b]", "39 µmol/kg"),
    ("COc1cccc(OC)c1OC(=O)C(CN1CCOCC1)N1CCSC(C)(C)C1 (stereo not shown) [Example 19c]", "28 µmol/kg"),
    ("COc1cccc(OC)c1OC(=O)C(CCSC)N1CCCCCCC1 (stereo not shown) [Example 40d]", "35 µmol/kg"),
    ("COC(=O)CCC(C(=O)Oc1c(OC)cccc1OC)N1CCCCCC1.Cl (stereo not shown) [Example 47b]", "36 µmol/kg"),
    ("COC(=O)CC(C(=O)Oc1c(OC)cc(C)cc1OC)N1CCOCC1 (stereo not shown) [Example 26b]", "46 µmol/kg"),
    ("COCCC(C(=O)Oc1c(OC)cccc1OC)N1CCCCCC1 (stereo not shown) [Example 10e]", "17 µmol/kg"),
    ("COC(=O)CC(C(=O)Oc1c(OC)cccc1OC)N1CCCCC1 (stereo not shown) [Example 28a]", "26 µmol/kg"),
    ("COc1cccc(OC)c1OC(=O)C(CN1CCOCC1)N1CCO[C@H](C)C1 (stereo partly shown) [Example 19d]", "27 µmol/kg"),
    ("CCOCCC(C(=O)Oc1c(OC)cc(C)cc1OC)N1CCCOCC1 (stereo not shown) [Example 10w]", "26 µmol/kg"),
    ("COc1cc(C)cc(OC)c1OC(=O)C(CC(=O)N1CCCCC1)N1CCCCC1 (stereo not shown) [Example 34a]", "38 µmol/kg"),
    ("COc1cccc(OC)c1OC(=O)C(CCN1CCOC(C)(C)C1)N1CCOC(C)(C)C1 (stereo not shown) [Example 21b]", "25 µmol/kg"),
    ("COc1cccc(OC)c1OC(=O)C(CN1CCOCC1)N1CCc2ccccc2C1 (stereo not shown) [Example 19b]", "29 µmol/kg"),
]

---

Attribute: HD50 (hypnotic dose50)
- System: mice
- ASSAY_PROTOCOL: Hypnotic activity: loss of righting reflex after intravenous injection in mice
- Format: in vivo
- STUDY_CONDITIONS: intravenous injection over 10 seconds, dose causing loss of righting reflex for minimum 30 seconds in 50% of treated mice

# COMPOUND, HD50 (hypnotic dose50)
data = [
    ("COCCN(CCOC)C(CCSC)C(=O)Oc1c(OC)cc(C)cc1OC (stereo not shown) [Example 39c]", "23 µmol/kg"),
    ("COCCN(CCOC)C(COC)C(=O)Oc1c(OC)cc(C)cc1OC (stereo not shown) [Example 3i]", "28 µmol/kg"),
    ("COCC(C(=O)Oc1c(OC)cc(C)cc1OC)N1CCCOCC1 (stereo not shown)", "31 µmol/kg"),
    ("CCOCCN(CCOCC)C(COC)C(=O)Oc1c(OC)cc(C)cc1OC (stereo not shown)", "23 µmol/kg"),
    ("COc1cccc(OC)c1OC(=O)C(CCSC)N1CCCC1 (stereo not shown) [Example 40b]", "40 µmol/kg"),
    ("COc1cc(C)cc(OC)c1OC(=O)C(CCSC)N1CCCC1 (stereo not shown) [Example 39b]", "31 µmol/kg"),
    ("COc1cccc(OC)c1OC(=O)C(CN1CCOCC1)N1CCOC[C@H]1C(C)C (stereo partly shown) [Example 19h]", "21 µmol/kg"),
    ("CCOCCC(C(=O)Oc1c(OC)cccc1OC)N(CCOCC)CCOCC (stereo not shown) [Example 10s]", "47 µmol/kg"),
    ("COCCC(C(=O)Oc1c(OC)cc(C)cc1OC)N1CCCCCC1 (stereo not shown) [Example 10n]", "38 µmol/kg"),
    ("CCC1(C)CN(C(CN2CCOCC2)C(=O)Oc2c(OC)cccc2OC)CCO1 (stereo not shown) [Example 19f]", "21 µmol/kg"),
    ("COC(=O)CC(C(=O)Oc1c(OC)cc(C)cc1OC)N1CCCCCC1 (stereo not shown) [Example 30b]", "26 µmol/kg"),
    ("COCC(C(=O)Oc1c(OC)cccc1OC)N1CCCOCC1 (stereo not shown)", "30 µmol/kg"),
    ("CCOCCC(C(=O)Oc1c(OC)cccc1OC)N1CCCOCC1 (stereo not shown) [Example 10p]", "23 µmol/kg"),
    ("COCCC(C(=O)Oc1c(OC)cccc1OC)N1CCCOCC1 (stereo not shown) [Example 10a]", "15 µmol/kg"),
    ("COc1cccc(OC)c1OC(=O)C(CCSC)N1CCCCCC1 (stereo not shown) [Example 40c]", "18 µmol/kg"),
    ("CCOCCN(CCOCC)C(CCOC)C(=O)Oc1c(OC)cc(C)cc1OC (stereo not shown) [Example 10m]", "25 µmol/kg"),
    ("COC[C@@H](C(=O)Oc1c(OC)cccc1OC)N1CCCOCC1 [Example 52b]", "40 µmol/kg"),
    ("COC(=O)CCC(C(=O)Oc1c(OC)cc(C)cc1OC)N1CCCCC1.Cl (stereo not shown) [Example 49b]", "47 µmol/kg"),
    ("COc1cc(C)cc(OC)c1OC(=O)C(CCS(C)(=O)=O)N1CC=CCC1 (stereo not shown)", "39 µmol/kg"),
]
